As shown below, each of these compounds has a reported log10(EC50) value.
target: Beta-2 adrenergic receptor (Homo sapiens); test: Agonist activity at human beta2 adrenergic receptor expressed in HEK293 cells assessed as increase in cAMP accumulation after 60 mins by HTRF assay; format: functional, cell-based; conditions: read-out: pEC50 (converted)
Sequence (P07550 whole entry): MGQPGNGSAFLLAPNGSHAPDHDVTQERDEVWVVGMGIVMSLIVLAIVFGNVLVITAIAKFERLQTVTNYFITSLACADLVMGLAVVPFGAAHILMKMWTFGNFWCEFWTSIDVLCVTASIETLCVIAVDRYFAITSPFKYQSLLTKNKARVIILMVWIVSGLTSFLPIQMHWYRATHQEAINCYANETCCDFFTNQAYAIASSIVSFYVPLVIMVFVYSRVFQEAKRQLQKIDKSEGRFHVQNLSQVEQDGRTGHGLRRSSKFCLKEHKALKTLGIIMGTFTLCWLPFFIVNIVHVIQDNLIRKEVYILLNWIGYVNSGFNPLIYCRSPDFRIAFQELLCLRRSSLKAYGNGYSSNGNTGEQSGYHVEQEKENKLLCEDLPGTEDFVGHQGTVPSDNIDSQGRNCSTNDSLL
The base-10 logarithm of EC50, taken with EC50 in nM, is what appears here.

Sample records with log10(EC50):
Compound	log10(EC50)
CC(C)(CCc1ccccc1)NCC(O)c1ccc(O)c2[nH]c(=O)ccc12 (configuration not stated)	-1.39
CC(C)(CC(c1ccc(F)cc1)c1ccc(F)cc1)NCC(O)c1ccc(O)c2[nH]c(=O)ccc12 (configuration not stated)	-1.12
COc1ccccc1CCCNCC(O)c1ccc(O)c2[nH]c(=O)ccc12 (configuration not stated)	-1.37
CC(C)C(=O)Nc1cccc(CCCNCC(O)c2ccc(O)c3[nH]c(=O)ccc23)c1 (configuration not stated)	-0.30

Any idea what its log10(EC50) is? The compound is CC(CC(=O)Nc1ccc(CCCNCC(O)c2ccc(O)c3[nH]c(=O)ccc23)cc1)CC(C)(C)C (configuration not stated) 0.40

Any idea what its log10(EC50) is? The compound is CC(C)(CC(c1ccccc1)c1ccccc1)NC[C@H](O)c1ccc(O)c2[nH]c(=O)ccc12 -1.19

Any idea what its log10(EC50) is? The compound is O=c1ccc2c(C(O)CNCCCc3ccc(-c4ccccc4)cc3)ccc(O)c2[nH]1 (configuration not stated) -0.88

====

target: Beta-1 adrenergic receptor (Homo sapiens, UniProt P08588); experiment: Agonist activity at human beta1 adrenergic receptor expressed in HEK293 cells assessed as increase in cAMP accumulation after 60 mins by HTRF assay
Sequence (P08588 whole entry): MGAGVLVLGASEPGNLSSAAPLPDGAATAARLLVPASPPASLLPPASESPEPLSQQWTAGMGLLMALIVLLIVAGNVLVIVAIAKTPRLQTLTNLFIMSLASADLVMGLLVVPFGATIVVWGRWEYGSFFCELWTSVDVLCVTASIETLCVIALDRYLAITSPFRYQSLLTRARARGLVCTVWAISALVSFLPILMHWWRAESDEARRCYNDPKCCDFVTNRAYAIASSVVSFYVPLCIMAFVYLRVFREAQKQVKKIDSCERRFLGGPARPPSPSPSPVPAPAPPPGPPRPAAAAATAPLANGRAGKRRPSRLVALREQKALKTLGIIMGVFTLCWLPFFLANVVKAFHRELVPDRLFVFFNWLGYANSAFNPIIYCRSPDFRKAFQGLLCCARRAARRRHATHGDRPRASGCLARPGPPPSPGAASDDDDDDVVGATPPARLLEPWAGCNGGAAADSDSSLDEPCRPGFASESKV
Outcome Measure: EC50 (nM)
Quick reminder: number only, in nM, skip the unit.

Any idea what its EC50 is? The molecule is O=c1ccc2c(C(O)CNCCCc3cccc(O)c3)ccc(O)c2[nH]1 (centres undefined) 219

Any idea what its EC50 is? The molecule is COc1ccccc1CCCNCC(O)c1ccc(O)c2[nH]c(=O)ccc12 (centres undefined) 11.2

Any idea what its EC50 is? The molecule is O=c1ccc2c(C(O)CNCCCc3ccc(O)cc3)ccc(O)c2[nH]1 (centres undefined) 36.3

Any idea what its EC50 is? The molecule is CC(C)(CC(c1ccc(F)cc1)c1ccc(F)cc1)NC[C@H](O)c1ccc(O)c2[nH]c(=O)ccc12 6.76

Any idea what its EC50 is? The molecule is O=c1ccc2c(C(O)CNCCOc3ccccc3)ccc(O)c2[nH]1 (centres undefined) 72.4

====

biological target: Beta-2 adrenergic receptor (Homo sapiens, UniProt P07550); assay: Intrinsic activity at human beta2 adrenergic receptor in HEK293 cells assessed as increase in cAMP accumulation after 60 mins by HTRF assay relative to isoprenaline; assay type: functional, cell-based
Sequence (P07550 whole entry, looked up): as the sequence (P07550 whole entry) above
As shown below, each of these compounds has a reported Intrinsic activity value.
Quick reminder: number only, in %, skip the unit.

Sample records with Intrinsic activity:
Compound	Outcome Measure	Value
O=c1ccc2c(C(O)CNCCCc3ccccc3)ccc(O)c2[nH]1 (configuration not stated)	Intrinsic activity	81.2
COc1ccccc1CCCNCC(O)c1ccc(O)c2[nH]c(=O)ccc12 (configuration not stated)	Intrinsic activity	77.3

What Intrinsic activity appears in the records for this compound with Beta-2 adrenergic receptor (Homo sapiens, UniProt P07550)? CC(CC(=O)Nc1cccc(CCCNCC(O)c2ccc(O)c3[nH]c(=O)ccc23)c1)CC(C)(C)C (configuration not stated) 77.4

What Intrinsic activity appears in the records for this compound with Beta-2 adrenergic receptor (Homo sapiens, UniProt P07550)? COc1cccc(CCCNCC(O)c2ccc(O)c3[nH]c(=O)ccc23)c1 (configuration not stated) 78

What Intrinsic activity appears in the records for this compound with Beta-2 adrenergic receptor (Homo sapiens, UniProt P07550)? CC(C)CCC(=O)Nc1cccc(CCCNCC(O)c2ccc(O)c3[nH]c(=O)ccc23)c1 (configuration not stated) 67.4

What Intrinsic activity appears in the records for this compound with Beta-2 adrenergic receptor (Homo sapiens, UniProt P07550)? O=c1ccc2c(C(O)CNCCCc3cccc(O)c3)ccc(O)c2[nH]1 (configuration not stated) 83.6

What Intrinsic activity appears in the records for this compound with Beta-2 adrenergic receptor (Homo sapiens, UniProt P07550)? CC(C)(CCc1ccccc1)NC[C@H](O)c1ccc(O)c2[nH]c(=O)ccc12 84.8

Values from ChEMBL document CHEMBL4340501
